Reported PI by item:
experiment: Isoelectric focusing gel electrophoresis; assay type: physicochemical
Give your answer as a number; write no unit.

* G35: human anti-HMG1 antibody; VL/VH aa SEQ ID NO: 54/56 (antibody, listed as Homo sapiens, V domains shown) VH: EVQLLESGGGLVQPGGSLRLSCAASGFTFSWYKMVWVRQAPGKGLEWVSSIVPSGGITIYADSVKGRFTISRDNSKNTLYLQMNSLRAEDTAVYYCARVQQWLGRPYFDYWGQGTLVTVSS VL: AQDIQMTQSPLSLPVTPGEPASISCRSSQSLLHGNGYNYLDWYLQRPGQSPQLLIYSGSNRASGVPDRFSGSGSGTDFTLKISRVEAEDVGVYYCMQSLQSRTFGQGTKVEIK | 8.61

Now, please, on to the next molecule.
query: Entry S12: human anti-HMG1 antibody; VL/VH aa SEQ ID NO: 62/64 (antibody, listed as Homo sapiens, V domains shown) VH: EVQLLESGGGLVQPGGSLRLSCAASGFTFSKYIMHWVRQAPGKGLEWVSGIVPSGGLTEYADSVKGRFTISRDNSKNTLYLQMNSLRAEDTATYYCAKEIFGQFDYWGQGTLVTVSS VL: AQSALTQPPSVSAAPRQRVTISCSGSTSNIGNNAVTWYQYFPGKAPKLLIYSDNQRPSGVPDRFSGSKSGTSASLAITGLQAEDEADYYCQSYDRGLSVVFGGGTKLTVL : reported PI = ?
result: 8.73
